Entries and their IC50 values follow.
- assayed_system: KRAS G13D (Homo sapiens (Human), UniProt P01116+P62937, G13D)
- Sequence (P01116-2 other isoform, or with tags, fused parts or gaps G13D): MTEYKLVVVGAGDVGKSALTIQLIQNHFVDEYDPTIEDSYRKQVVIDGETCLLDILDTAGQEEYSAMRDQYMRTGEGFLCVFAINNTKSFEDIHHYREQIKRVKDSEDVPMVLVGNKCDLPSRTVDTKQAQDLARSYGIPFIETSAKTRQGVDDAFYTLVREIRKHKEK
- Sequence (P62937 whole entry): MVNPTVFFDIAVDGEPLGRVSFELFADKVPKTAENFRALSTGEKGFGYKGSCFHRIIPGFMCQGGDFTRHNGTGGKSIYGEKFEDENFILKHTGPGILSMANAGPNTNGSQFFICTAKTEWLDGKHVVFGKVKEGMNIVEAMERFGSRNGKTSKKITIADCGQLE
- measurement_protocol: Ras-Raf (BRAF RBD) disruption / FRET / MOA assay, KRAS G13D
- Assay type: biochemical
- study_conditions: read-out: IC50* KRAS G13D FRET data

Here's what some known entries look like.
C=CC(=O)NC1CN(C(=O)N(C)[C@H](C(=O)N[C@H]2Cc3nc(cs3)-c3ccc4c(c3)c(c(-c3cccnc3[C@H](C)OC)n4CC)CC(C)(C)COC(=O)[C@@H]3CCCN(N3)C2=O)C(C)C)C1 (atropisomer, axis not shown)    100 to 1000 nM
C=CC(=O)N1CC(OC[C@H](C(=O)N[C@H]2Cc3cc(cc(C(F)F)c3)-c3ccc4c(c3)c(c(-c3cccnc3[C@H](C)OC)n4CC)CC(C)(C)COC(=O)[C@@H]3CCCN(N3)C2=O)C(C)C)C1 (atropisomer, axis not shown)    > 10000 nM
CCn1c(-c2cccnc2[C@H](C)OC)c2c3cc(ccc31)-c1cc(O)cc(c1)C[C@H](NC(=O)[C@H](C(C)C)N(C)C(=O)[C@H]1CCN(C(=O)C#CCN3[C@H](C)COC[C@@H]3C)C1)C(=O)N1CCC[C@H](N1)C(=O)OCC(C)(C)C2 (atropisomer, axis not shown)    100 to 1000 nM
C=CC(=O)N1CC2(CCCN2C(=O)N(C)[C@H](C(=O)N[C@H]2Cc3nc(cs3)-c3ccc4c(c3)c(c(-c3cccnc3[C@H](C)OC)n4CC)CC(C)(C)COC(=O)[C@@H]3CCCN(N3)C2=O)C(C)C)C1 (atropisomer, axis not shown)    100 to 1000 nM
CCn1c(-c2cccnc2COC)c2c3cc(ccc31)-c1cc(O)cc(c1)C[C@H](NC(=O)[C@H](C(C)C)N(C)C(=O)[C@H]1CCC(C(=O)/C=C\CN(C)C)C1)C(=O)N1CCC[C@H](N1)C(=O)OCC(C)(C)C2 (some centres unmarked) [Example A164]    100 to 1000 nM

**Query** For the record C=CC(=O)N1CC[C@H](C(=O)N(C)[C@H](C(=O)N[C@H]2C[C@H]3CN(CCO3)c3ccc4c(c3)c(c(-c3cccnc3[C@H](C)OC)n4CC)CC(C)(C)COC(=O)[C@@H]3CCCN(N3)C2=O)C(C)C)C1 (atropisomer, axis not shown) , what value of IC50 is listed for KRAS G13D (Homo sapiens (Human), UniProt P01116+P62937, G13D)?
**Result** > 10000 nM

**Query** Continue with C=CC(=O)N1CC[C@H](C(=O)N(C)[C@H](C(=O)N[C@H]2Cc3cccc(c3)-c3ccc4c(c3)c(c(-c3cccnc3[C@@H]3CCCO3)n4CC)CC(C)(C)COC(=O)[C@@H]3CCCN(N3)C2=O)C(C)C)C1 (atropisomer, axis not shown)
**Result** > 10000 nM

**Query** Continue with C=CC(=O)N1CC[C@H](C(=O)N(C)[C@H](C(=O)N[C@H]2Cc3cc(O)cc(c3)-c3ccc4c(c3)c(c(-c3c(C)cccc3C)n4CC)CC(C)(C)COC(=O)[C@@H]3CCCN(N3)C2=O)C(C)C)C1
**Result** > 10000 nM

---

Entries and their pIC50 values follow.
- assayed_system: KRAS Q61H (Homo sapiens (Human), UniProt P01116+P62937, Q61H)
- Sequence (P01116-2 other isoform, or with tags, fused parts or gaps Q61H): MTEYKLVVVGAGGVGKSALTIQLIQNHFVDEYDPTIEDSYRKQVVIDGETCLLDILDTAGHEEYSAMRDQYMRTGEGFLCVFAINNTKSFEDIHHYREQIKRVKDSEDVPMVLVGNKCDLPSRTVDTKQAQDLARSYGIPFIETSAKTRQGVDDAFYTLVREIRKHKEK
- Sequence (P62937 whole entry): as the sequence (P62937 whole entry) above
- measurement_protocol: Ras-Raf (BRAF RBD) disruption / FRET / MOA assay, KRAS Q61H
- Assay type: biochemical
- study_conditions: Ras-Raf disruption/FRET/MOA assay; class symbols; read-out: KRAS Q61H FRET data IC50
pIC50: −log10 of the molar value.

CCn1c(-c2cccnc2[C@H](C)OC)c2c3cc(ccc31)-c1csc(n1)C[C@H](NC(=O)C[C@@H](C)OC1CN(C(=O)C#CC(C)(C)N(C)C)C1)C(=O)N1CCC[C@H](N1)C(=O)OCC(C)(C)C2 (atropisomer, axis not shown) [Example A638]    5.00 to 6.00

**Query** Which pIC50 value is on record for C=CC(=O)N1CC[C@H](C(=O)N(C)[C@H](C(=O)N[C@H]2Cc3cc(O)cc(c3)-c3ccc4c(c3)c(c(-c3ncn(C)c3[C@H](C)OC)n4CC)CC(C)(C)COC(=O)[C@@H]3CCCN(N3)C2=O)C(C)C)C1 [Example A301] ?
**Result** 5.00 to 6.00

**Query** Continue with C=CC(=O)N1CC[C@H](C(=O)N(C)[C@H](C(=O)N[C@H]2Cc3cc(F)cc(c3)-c3ccc4c(c3)c(c(-c3cccnc3[C@H](C)OC)n4CC)CC(C)(C)COC(=O)[C@@H]3CCCN(N3)C2=O)C(C)C)C1 (atropisomer, axis not shown) [Example A342]
**Result** 6.00 to 7.00

**Query** Continue with CO[C@@H](C)c1ncc(N2CCN(C)CC2)cc1-c1c2c3cc(ccc3n1CC(F)(F)F)-c1cccc(c1)C[C@H](NC(=O)[C@H](C(C)C)N(C)C(=O)C1(F)CCN(C(=O)C#CC(C)(C)N(C)C)CC1)C(=O)N1CCC[C@H](N1)C(=O)OCC(C)(C)C2 (atropisomer, axis not shown) [Example A542]
**Result** 7.00 to 8.00
